Task for the reader: assign each of the following compounds its reported growth inhibition.
assay_name: NCI Yeast Anticancer Drug Screen. Data for the mec2-1 strain (AID 157)
setup_conditions: S. cerevisiae mec2-1 strain, at 1.2 µM, hits give high values
About 79,000 compounds went through this panel and 15% of them were active in at least one assay; those are over-represented in the sample as a whole.
One number for each entry, in %.

Previously resolved entries follow.
• Oc1ccc(-c2nc(-c3ccc(F)cc3)c(-c3ccc4ccccc4n3)[nH]2)cc1 = -40
• Cc1cccc[n+]1C1CCc2c(ccc3ccccc23)C1=O (stereo not drawn) = -1
• Cc1ccc(N=Nc2ccc(O)c(=O)cc2)cc1 = -13
• O=Cc1ccc2c(c1)C(=O)c1ccccc1C2=O = 0
• O=C1OC(OC/C(Br)=C(\Br)COC2OC(=O)C(Cl)=C2Cl)C(Cl)=C1Cl (stereo not drawn) = -2
• OC(CCNCc1ccccc1)c1ccc2ccccc2c1 (stereo not drawn) = -1

Return reported growth inhibition values for all items listed beneath this line.
1. NNC(=O)CCc1cc2ccccc2c2ccccc12
2. CCC(C)OC(=O)Nc1ccc(C)c(NC(=O)OC(C)CC)c1 (stereo not drawn)
3. S=c1[nH]c2cc3ccccc3cc2[nH]1
4. O=[N+]([O-])c1ccc(N/N=C/Cc2ccccc2)c([N+](=O)[O-])c1
5. CC(=O)OCC(C)Cc1cc2c(cc1Br)OCO2 (stereo not drawn)

-2
-2
-25
-4
-3

Items follow; give growth inhibition for each.
1. O=c1nc2n(Cc3ccccc3)c3ccccc3nc-2c(=O)[nH]1
2. O=C1C(Br)=C(c2ccccc2)O/C1=C/C(=O)c1ccc(Br)cc1
3. NC(=O)C(=O)NNc1ccccc1
4. O=C(COC(=O)c1ccccc1)c1ccc(Br)cc1
5. C[C@]12CC[C@H](O)CC1=CC[C@@H]1C2CC[C@]2(C)C(=O)NC(=O)CC12 (stereo partly drawn)
6. NC(N)=NS(=O)(=O)c1ccc(Nc2c3ccccc3nc3c(C(=O)NCCO)cccc23)cc1

1: -2; 2: -1; 3: 0; 4: 4; 5: -23; 6: -3

---

What growth inhibition was measured for each of the following?
assay_name: NCI Yeast Anticancer Drug Screen. Data for the mgt1 strain (AID 153)
setup_conditions: S. cerevisiae mgt1 mutant growth inhibition; at 3.7 µM; hits give high values
About 79,000 compounds went through this panel and 15% of them were active in at least one assay; those are over-represented in the sample as a whole. Active and inactive are the calls of the source. Rule as the data show it: active = growth inhibition above about 70%; inactive = the rest.

Consider the reported growth inhibition for these compounds:
• C[Si](C)(C)/C=C/CCNC(C#N)c1ccccc1 (configuration not stated) = -25% (inactive)
• Cc1cc2c3ccccc3c3ccccc3c2nn1 = -6% (inactive)
• O=C1CC(=O)c2ccccc21 = 0% (inactive)
• Cc1cccc[n+]1C1CCc2c(ccc3ccccc23)C1=O (configuration not stated) = 2% (inactive)
• O=C(COC(=O)c1ccccc1)c1ccc(Br)cc1 = 13% (inactive)
• O=C1c2ccccc2C(=O)c2cc(CCl)ccc21 = 2% (inactive)

The following compounds each have a reported value; give each one's growth inhibition.
1. CCCCCCCCCCCCCCCCCC(=O)NCCCN(C)C
2. O=c1c2ccccc2nc(-c2ccccc2)n1O
3. Cc1ccccc1N=C(NO)c1ccccc1
4. C#CCN(Cc1ccc2nc(N)[nH]c(=O)c2c1)c1ccc(C(=O)NC(CCC(=O)O)C(=O)O)cc1 (configuration not stated)

-11% (inactive)
26% (inactive)
-4% (inactive)
-23% (inactive)

Parameters: items (list). Returns: growth inhibition for each item.
1. CCCCC/C(=C(\C#N)C(=O)OCC)c1ccccc1
2. CC(C)(C)CC(C)(C)c1cc(O)c(O)c(CN2CCCCC2)c1

1: -2% (inactive); 2: -1% (inactive)

---

Provide the recorded growth inhibition for the entries that follow.
assay_name: NCI Yeast Anticancer Drug Screen. Data for the rad18 strain (AID 177)
setup_conditions: S. cerevisiae rad18 mutant growth inhibition; at 1.2 µM; hits give high values
The panel holds about 79,000 compounds, 15% with a hit somewhere; the sample as a whole holds those more often.
One number for each entry, in %.

Recorded growth inhibition, per entry:
- O=C1c2ccccc2C(=O)c2cc(CCl)ccc21: 9
- Oc1ccc(O)c(Cc2ccccc2)c1: 27
- Cc1ccc(CC2(OCCN(C)C)CCC(C(C)(C)C)CC2)cc1 (stereo unspecified): 3
- CNC(=O)OCc1c(COC(=O)NC)c(-c2ccc(Cl)cc2)n2c1CCC2: -28
- C#CCN(Cc1ccc2nc(N)[nH]c(=O)c2c1)c1ccc(C(=O)NC(CCC(=O)O)C(=O)O)cc1 (stereo unspecified): -2

For every item in the list below, what is its measured growth inhibition?
1. CCOc1ccccc1N=Cc1c2ccccc2cc2ccccc12
2. COc1cccc2c1C(=O)c1c(O)c3c(c(O)c1C2=O)C[C@@](O)(C(C)=O)C[C@@H]3OC1CC(OC(C)=O)C(OC(C)=O)C(C)O1 (stereo partly specified)

-3
-28

---

Could you please report measured growth inhibition for the items listed next?
assay_name: NCI Yeast Anticancer Drug Screen. Data for the mec2-1 strain (AID 157)
setup_conditions: S. cerevisiae mec2-1 strain, at 5.0 µM (retest, dose inferred, filed as 0.5), hits give high values
About 79,000 compounds went through this panel and 15% of them were active in at least one assay; those are over-represented in the sample as a whole.
Give bare numbers, in %.

* OC(CCNCc1ccccc1)c1ccc2ccccc2c1 (centres undefined) | 15

Consider the following items and state reported growth inhibition for each.
1. Cc1cc(C)c(NC(=S)NC(=O)c2ccccc2)cc1C
2. COC1CCC(O)C(/C=C/[N+](=O)[O-])C1 (centres undefined)
3. OCc1ccccc1Cc1ccccc1

1. -16
2. 21
3. -2

Take each entry in turn and give its growth inhibition.
1. O=C1/C(=C/c2ccccc2)CCCC1CN1CCCCC1 (centres undefined)
2. CCOC(=O)CC1(C(=O)OCC)c2[nH]c3ccccc3c2CCN1Cc1ccccc1 (centres undefined)
3. COC(=O)C1=C(C(=O)OC)C(C(=O)OC)C(C(=O)OC)C(C(=O)OC)(C(=O)OC)C(C(=O)OC)=C1C(=O)OC (centres undefined)
4. CCOC(=O)C1=C(C)NC(C)=C(C(=O)OCCNC(=O)c2ccc(N=[N+]=[N-])cc2)C1c1ccccc1C(F)(F)F (centres undefined)
5. NNC(=O)CCc1cc2ccccc2c2ccccc12

1: 32; 2: 13; 3: 20; 4: 1; 5: 12

Quick one: give me growth inhibition for each item below, same order please.
1. CCC(C)NC1=NCC(C)S1 (centres undefined)
2. Cc1ccc(S/C(=C\C(=O)O)c2ccccc2)cc1
3. Cc1nc2ccc(N=NN(C)C)cc2[nH]1
4. COc1cc2ccnc(-c3c4ccccc4c(N)c4c(OC)c(OC)ccc34)c2cc1OC
5. Cc1cccc2c1nc1ccc(Cl)cc1[n+]2C

1. 42
2. -15
3. -9
4. 33
5. 3

---

assay_name: NCI Yeast Anticancer Drug Screen. Data for the mlh1 strain (AID 171);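 note: 0% = growth of vehicle-treated control cultures of the same strain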
setup_conditions: S. cerevisiae mlh1 strain growth inhibition; at 11.0 µM; hits give high values
About 79,000 compounds went through this panel and 15% of them were active in at least one assay; those are over-represented in the sample as a whole.
Would you kindly list growth inhibition for each of these compounds?
Numbers only, in %.

- Cc1cccc2c1nc1ccc(Cl)cc1[n+]2C: 82

Count: 8. Required value per item: growth inhibition.
1. O=C(CC(C(=O)O)N1CCOCC1)c1ccccc1 (configuration not stated)
2. CCOC(=O)C#Cc1ccc([N+](=O)[O-])cc1
3. CN(C)CCNC(=O)c1cccc2c1Oc1c(cccc1[N+](=O)[O-])O2
4. O=C(COC(=O)c1ccccc1)c1ccc(Br)cc1
5. COc1cccc2c1C(=O)c1c(O)c3c(c(O)c1C2=O)CC(O)(C(O)CO)CC3OC1CC(N2CCOCC2)C(O)C(C)O1 (configuration not stated)
6. CC(C)/C(Cl)=N\OC(=O)Nc1ccc(F)cc1F
7. CCCCOP(=O)(CCCP(=O)(OCCCC)OCCCC)OCCCC
8. COC(=O)CC1CCc2c(ccc3ccccc23)C1(C)C(=O)OC (configuration not stated)

4
-10
18
38
97
9
1
0

---

assay_name: NCI Yeast Anticancer Drug Screen. Data for the rad50 strain (AID 155);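 note: 0% = growth of vehicle-only cultures of the same strain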
setup_conditions: S. cerevisiae rad50 strain growth inhibition; at 3.7 µM; hits give high values
The panel holds about 79,000 compounds, 15% with a hit somewhere; the sample as a whole holds those more often.
property_label: growth inhibition (%)
One number for each entry, in %.

Past entries and their recorded results:
• Cc1cc(N(CCOS(C)(=O)=O)CCOS(C)(=O)=O)ccc1C=Nc1ccc(-c2nc(Cc3ccccc3)sc2C)cc1 = 23
• COC1=C(OC)C(=O)C(Sc2ccc3ccccc3c2)=CC1=O = 0
• CN(C)c1ccc2c(SCC(=O)OCC(=O)[C@@]3(O)CC[C@H]4[C@@H]5CCC6=CC(=O)C=C[C@]6(C)[C@H]5C(=O)C[C@@]43C)c3ccc(N(C)C)cc3nc2c1 = -13
• CCOC(=O)C#Cc1ccc([N+](=O)[O-])cc1 = 4
• CN(C)N=Nc1ccccc1C(=O)NC#N = -14

List reported growth inhibition for each of these compounds:
1. O=C1Nc2ccccc2/C1=C/c1ccccc1
2. Cc1ccc([N+]2=NC(c3ccccc3)=NN(c3ccccc3)C2)cc1
3. Cc1ccccc1N=Cc1cc(Cl)ccc1O
4. O=C1N=C2SC=C(NC(=S)Nc3ccccc3)N2NC12c1ccccc1-c1ccccc12
5. CC(=O)OCC1OC2OC(=O)NC2C(OC(C)=O)C1OC(C)=O (stereo not given)

1
0
-1
0
-1
